Listed next: entries and their corresponding protein stability index.
B1: ZNF511 (parent)
chain: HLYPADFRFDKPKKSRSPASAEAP

# Variants of: B1
# MEASUREMENT_PROTOCOL: protein stability index of a GFP-peptide fusion (GPS, HEK-293T) (PSI 1-6); higher = more stable;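 note: lentivirally expressed fusions sorted by FACS into six bins by GFP to DsRed ratio, PSI derived from sequencing read proportions per bin multiplied by bin number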
# TEST_CONDITIONS: c terminus: a fixed tail appended
API doc: respond with a numeric literal and nothing else, no unit.

// known answers, use as guide
* HLYPADFRFDKPKKSRSPASAIAP | 2.93
* HLYPADERFDKPKKSRSPASAEAP | 5.23
* HLYPADFRFDKPKKSRSPASWEAP | 2.28
* CLYPADFRFDKPKKSRSPASAEAP | 3.59
* HLYPADFRFDKPKKSRSPASREAP | 2.84
* HLYPADFRFDKPKKSRSPASAEAY | 2.69
* HLYPADFREDKPKKSRSPASAEAP | 1.88
* HLYPADFRFDCPKKSRSPASAEAP | 3.21
* HLYPADFRFDKPKKSRSPASAENP | 3.1
* HLYPADFRFDKPKKSRSPAWAEAP | 1.8

Req: Any idea what its protein stability index is? The variant is "WLYPADFRFDKPKKSRSPASAEAP"
Resp: 2.69
